TEST DETAILS: Cytotoxicity against BHK cells after 48 hrs by MTT assay
Assay type: cell-based, Mesocricetus auratus
CONDITION CONTEXT: hamster
OBSERVED PROPERTY: CC50 at 48 h (µg/mL)
Give a bare numeral; the unit µg/mL is implied.

q: Please report the recorded CC50 at 48 h for CC(C)=CCc1c(O)ccc(C(=O)/C=C/c2ccc(O)cc2)c1O .
a: 86.9

###

TEST DETAILS: Cytotoxicity against BHK cells at 100 ug/ml after 48 hrs by MTT assay
Type: cell-based, Mesocricetus auratus
CONDITION CONTEXT: hamster, BHK cells
OBSERVED PROPERTY: CC50 at 48 h (µg/mL)
Give a bare numeral; the unit µg/mL is implied.

q: Please report the recorded CC50 at 48 h for O=C(/C=C/c1ccc(O)c(-c2cc(C(=O)/C=C/c3ccc(O)cc3)c(O)cc2O)c1)c1ccc(O)cc1O .
a: 97.6
